# experiment-summary: chemical genetic growth profiling, strain panel (AID 1159580);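 further: tested at 20 µM; growth read once vehicle control cultures reached saturation at 30 °C; lower values mean less growth of the strain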
# test-settings: S. cerevisiae deletion strains, growth OD, locus YER015W, strain faa2
The campaign covered roughly 5,500 compounds. About 2,000 (36%) were called active. About 18% were inconclusive and are not listed. No stated cut-off is given here; in the data, active means normalized growth mostly below about 0.91 (no sharp cut-off); inconclusive means no clear call, values can overlap the other calls; inactive means mostly above about 0.92. The list shows a part of the results.
Classes used: Y = active, N = inactive

>>> print(df.to_string())
                                    compound  group_label
 0            C=C(C)c1cc2cc(C(C)=O)c(O)cc2o1            N
 1                        O=C(O)c1cccc(O)c1O            N
 2  CCCC(=O)Nc1ncnc2c1ncn2C1O[C@@H]2COP(=O)(O)O[C@H]2[C@H]1OC(=O)CCC (some centres not stated)            N
 3              Cn1c(=O)[nH]c(=O)c2[nH]cnc21            N
 4  C[C@H]1C(=O)O[C@@H]2CCN3CC=C(COC(=O)[C@](C)(O)[C@]1(C)O)[C@H]23            N
 5            CN1CCN(C(c2ccccc2)c2ccccc2)CC1            N
 6  C[N+]1(C)CCc2cc3c(cc2[C@H]1C1OC(=O)c2c1ccc1c2OCO1)OCO3 (some centres not stated)            N
 7       CCS(=O)(=O)CCn1c([N+](=O)[O-])cnc1C            N
 8  Fc1ccc(C(c2ccc(F)cc2)N2CCN(C/C=C/c3ccccc3)CC2)cc1            Y
 9             COc1ccc2[nH]cc(CCNC(C)=O)c2c1            N
10                 COc1c2occc2cc2ccc(=O)oc12            N
11       Cc1cc(C)nc(NS(=O)(=O)c2ccc(N)cc2)n1            N
